B1: Homeobox protein cut-like 2, residues 895 to 963; numbered along this chain, O14529 (parent)
chain: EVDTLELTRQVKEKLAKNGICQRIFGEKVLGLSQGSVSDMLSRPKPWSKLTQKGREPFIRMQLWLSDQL

variants of: B1; assay: abundance fitness (aPCA) (normalised: wild type 0, dead -1); higher = more abundant; growth selection in yeast, the domain comes from the species named; conditions: Homo sapiens
TEST READOUT: abundance fitness

EVDTLELTRQVKEKLAKNGICQRIFGEKVLGLSQGSVSDMLSRPKPWSKLTQKGREPFIRQQLWLSDQL: -1.02
EVDTLELTRQVKEKLAKNGICQRIFGEKVLGLSQGSVSVMLSRPKPWSKLTQKGREPFIRMQLWLSDQL: -0.389
EVDTLELTRQVKEKLAWNGICQRIFGEKVLGLSQGSVSDMLSRPKPWSKLTQKGREPFIRMQLWLSDQL: -0.269
EVDTLELTRQVKEKLAKNGICQRIFGYKVLGLSQGSVSDMLSRPKPWSKLTQKGREPFIRMQLWLSDQL: -0.191
EVDTLELTRQVKNKLAKNGICQRIFGEKVLGLSQGSVSDMLSRPKPWSKLTQKGREPFIRMQLWLSDQL: -0.116

Exam item: Using the record for EVDTLELTRQVKEKGAKNGICQRIFGEKVLGLSQGSVSDMLSRPKPWSKLTQKGREPFIRMQLWLSDQL , report its abundance fitness.
Marked response: -0.113

Exam item: Item under review: EVDTLELTRQVKEKLAKNGICQRIFGEKVLGLSQGYVSDMLSRPKPWSKLTQKGREPFIRMQLWLSDQL . Reported abundance fitness?
Marked response: -0.062

Exam item: Endpoint output: abundance fitness of MVDTLELTRQVKEKLAKNGICQRIFGEKVLGLSQGSVSDMLSRPKPWSKLTQKGREPFIRMQLWLSDQL . Value?
Marked response: 0.034
